# target of assay: T1, SNTA1, Q13424
# T1 sequence (Q13424 82-180, limits assumed, looked up): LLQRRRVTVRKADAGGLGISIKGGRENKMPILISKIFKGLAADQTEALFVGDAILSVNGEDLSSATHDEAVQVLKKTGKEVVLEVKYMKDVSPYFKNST
# assay remarks: holdup assay
# Set-up: key: below the threshold = too weak to quantify, mostly under pKd 3.1 to 4
# assay setup: plain residues with an end cap or a label only (N-terminal biotin on a linker: ado-ado)
measurement name: pKd

Some binders with recorded pKd:
binder="VKPQVSESKL [ACOT8, O14734]" measurement_name=pKd reported_measurement="below the threshold"
binder="PLSPEQPTKL [TRIM50, Q86XT4]" measurement_name=pKd reported_measurement="below the threshold"
binder="PKRSFIESNV [TANC1, Q9C0D5]" measurement_name=pKd reported_measurement=4.77
binder="NLSIEKETKL [ASNSD1, Q9NWL6]" measurement_name=pKd reported_measurement=4.9
binder="EKKTLIGIKL [GOT1L1, Q8NHS2]" measurement_name=pKd reported_measurement="below the threshold"

As a next step, examine the binder that follows.
Q. GET /values?readout=pKd&item= SKSNFGSEPL [KIF17, Q9P2E2]
A. below the threshold

// data source = paper PMC9482650
